Target: T1, PUF4 RNA-binding domain (Saccharomyces cerevisiae, UniProt P25339 537-888)
T1 sequence: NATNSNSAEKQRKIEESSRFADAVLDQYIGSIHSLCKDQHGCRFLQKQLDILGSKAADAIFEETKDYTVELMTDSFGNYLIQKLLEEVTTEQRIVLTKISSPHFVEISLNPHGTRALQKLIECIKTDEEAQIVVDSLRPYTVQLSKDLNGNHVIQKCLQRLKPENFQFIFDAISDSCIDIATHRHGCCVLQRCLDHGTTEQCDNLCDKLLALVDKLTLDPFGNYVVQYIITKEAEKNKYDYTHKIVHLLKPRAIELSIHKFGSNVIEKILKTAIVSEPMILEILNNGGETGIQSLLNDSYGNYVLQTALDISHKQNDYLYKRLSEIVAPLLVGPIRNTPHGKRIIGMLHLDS
Assay: Mg; RNA-MaP; 20 mM Na-HEPES pH 7.4, 30 mM KOAc, 0.75 mM MgCl2, 0.1% Tween-20, 5% glycerol, 0.1 mg/mL BSA, 2 mM DTT; 25 C; 0.0125-409.6 nM protein
Settings: tags: N-His6-TEV cleaved; C-SNAP kept, Cy3B-labelled; label: tethered on chip by stalled RNA polymerase
Reported Metric: Kd

According to the records, this binder UCUCUUUUUCCGUAUUAUUAUCUCUU (ssRNA) [Ie_S1_P5E.1_K5.1_C5.1_H5.1_[+1TTCC]_A5.1_F5.1_T5.1] displays Kd of > 2300 nM

According to the records, this binder Ie_S2_P3E.2_K3.1_C3.2_[+-2CCT]_H3.1_A3.1_F3.1_T3.2 (ssRNA) RNA: UUUGAUUAAUAUGAUAUCGUUCUUUCUCCCUUUGUAUAUAUAUUCUUUCUCGAUAUCAUAUUAAUCUUU displays Kd of 1.07 nM

// provenance: paper PMC9352680
